Data provenance: PubChem BioAssay AID1578

Reported inhibition is given for each of the following compounds.
- Procedure text: NOD1 signaling inhibitors, primary screen, cell-based, luminescence, uHTS (AID 1578);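 also: HEK-293T reporter cells stimulated with the NOD1 agonist gamma-tri-DAP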
- Conditions: NOD1-driven NF-kB luciferase reporter cells, at 4 µM, stronger effect = higher value
The whole screen tested about 290,000 compounds, of which about 3,000 (1%) were called active. Only a selection was taken, and actives are over-represented in it overall.
Measurement name: inhibition (%)

- CC(NC(=O)c1cnc2ccccc2n1)c1ccccc1 (stereo not drawn): 78.3
- NC(=O)c1ccc(Oc2ccc(Cl)cc2)c([N+](=O)[O-])c1: 2.7
- Nc1[nH]nc2nc3ccccc3cc12: -21.2
- COc1cc(CNC2CCCCCCC2)ccc1OCC(N)=O: -34.5
- O=C(NCCc1ccccc1)C(=O)NCC1OCCCN1S(=O)(=O)c1cccs1 (stereo not drawn): -40.9
- CC(=O)c1ccc(Oc2ccc(C(=O)c3ccc(C)c(C)c3)cc2[N+](=O)[O-])cc1: 69.6
- Cc1ccc2nc(Cl)c3nnnn3c2c1: 83.8
- CN(C(=O)COC(=O)/C=C/c1cccc([N+](=O)[O-])c1)C1CCS(=O)(=O)C1 (stereo not drawn): 61.3
- CSCCC(NC(=O)OCc1ccccc1)C(=O)NCc1cccnc1 (stereo not drawn): -10.2
- CN(C(=O)COC(=O)/C=C/c1ccc(C(F)(F)F)cc1)C1CCS(=O)(=O)C1 (stereo not drawn): -16.9
- CCCc1nc2c([nH]1)c(=O)n(C)c(=O)n2C: -7.1
- CCC(=O)c1ccc(Oc2ccc(C(=O)c3ccc(C)cc3)cc2[N+](=O)[O-])cc1: 40.1
- CCOC(=O)/C(C#N)=C/c1c(N2CCCCCC2)nc2ccccn2c1=O: 0.9
- Cc1cc(C)cc(NC(=O)c2ccc(CSc3nnnn3C)cc2)c1: -44.7
- Cc1ccc2nc(N3CCN(c4cccc(C)c4C)CC3)c3nnnn3c2c1: 6.9
- O=C(Nc1ccccc1)c1cnc2ccccc2n1: -56.8
- O=C(O)c1ccc(N2C(=O)/C(=C/C=C/c3ccccc3)SC2=S)cc1: -13.7
- CCN(Cc1cc2ccccc2[nH]c1=O)S(=O)(=O)c1ccc(OC)cc1: -5.3
- Cc1nnc(NC(=O)CSc2ccc(-c3ccc(Cl)cc3)nn2)s1: -24.7
- COc1cc(CNCCC2CCOC(C)(C)C2)ccc1O (stereo not drawn): 12.4
- O=C(O)c1ccc(N=Nc2c(-c3ccccc3)[nH]oc2=O)cc1: -2.7
- Cc1c(-c2ccccn2)c(=O)[nH]n1-c1ccc(F)cc1: -25.2
- O=C(/C=C/c1ccc(OC(F)F)cc1)Nc1cccc(S(=O)(=O)N2CCOCC2)c1: -23.1
